# Tested on: COLO 205 colon
# protocol-summary: NCI-60 one-dose screen, 48 h
# applied-conditions: 10 µM unless noted
Compounds without any hit were thinned out: in the full panel of roughly 83,000, 20% have a hit. Activity calls are given as the source filed them. Rule for the calls: active = growth percent below 10; inactive = the rest.
Return exactly one item of yes (active), no (inactive)

-- ask Can you look up the reported call for Cc1cc(NCc2cc(Nc3ccnc4cc(Cl)ccc34)ccc2F)nc(N2CCN(c3ccccc3)CC2)n1 for me?
-- reply no

-- ask # fetch the recorded call for Cn1cc(-c2csc(-c3cccc(F)c3)n2)c2cccnc21 here
-- reply yes

-- ask Test call, this compound: NNC(=O)c1nc(N)n(-c2ccc(S(N)(=O)=O)cc2)n1
-- reply no

-- ask Hello, I am checking results. What call was entered for CCCCn1c(=O)c2c(nc3n2CCCN3CCc2ccc(OCC(=O)NCCN(CC)CC)cc2)n(CCCC)c1=O ?
-- reply no

-- ask I'd appreciate the recorded outcome for COc1cc(/C=C/C(=O)c2c(C)nc3ccccc3c2/C=C/c2ccc(C)cc2)cc(OC)c1OC from this test.
-- reply no

-- ask Entry CCCCn1c(=O)c2c(nc(NCCc3ccc(O)c(O)c3)n2CCC)n(CCCC)c1=O : call = ?
-- reply no

-- ask So what was the verdict on COc1cc(N2C(=O)c3nccnc3C2=O)cc(OC)c1OC in this test?
-- reply no

-- ask I would be grateful if you could indicate the recorded call for O=C(N/N=C/c1ccncc1)c1ccc(C(F)(F)F)nc1Nc1cccc(C(F)(F)F)c1 .
-- reply yes

-- ask Tell me the recorded outcome of this test for CCOc1ccccc1-c1cc(-c2cccs2)c(C#N)c(=O)[nH]1 .
-- reply no

-- ask How did this test come out for N#CC1=C(c2ccc(Br)cc2)NC(SCC(=O)c2ccc(Br)cc2)NC1=O (stereo not given) ?
-- reply no

-- ask Hi team, can someone confirm the assay call for Cc1nn(-c2ccccc2)c(Cl)c1/C=C(/NC(=O)c1ccccc1)c1nc2ccccc2[nH]1 ?
-- reply no

-- ask Please share the test call associated with COc1ccc(C2c3ccc4ccccc4c3Oc3nc(C)[nH]c(=O)c32)cc1 (stereo not given) .
-- reply no

-- ask Tell me the assay call for CCN(CCNc1ccc(C)c2sc3ccccc3c(=O)c12)CC(C)(C)O please.
-- reply no

-- ask // param item: OC(c1cccc(-n2ccc(C(F)(F)F)n2)c1)c1cnccc1NC1CCCCCC1 (stereo not given) ; yields the recorded call
-- reply yes

-- ask Which outcome was assigned to COC(=O)[C@]12CC[C@@H](C)[C@H](C)[C@@H]1C1=CC[C@@H]3[C@@]4(C)C(C=O)=C[C@@](C)(COC(C)=O)[C@@H]4C(=O)C[C@@]3(C)[C@]1(C)CC2 in this test?
-- reply yes

###

# Tested on: CAKI-1 renal
# protocol-summary: NCI-60 one-dose screen, 48 h
# applied-conditions: 10 µM unless noted
About 83,000 compounds went through this panel and 20% of them were active in at least one assay; those are over-represented in the sample as a whole. Calls of active or inactive are those of the source. Rule for the calls: active = growth percent below 10; inactive = the rest.
Returns: one label drawn from true = active, false = inactive

-- ask Look up the recorded call for N#Cc1c(N)nc(NCCO)nc1-c1ccc(F)cc1 in this test.
-- reply false

-- ask In this assay, the call recorded for CCc1ccccc1-n1c(-c2ccc(Cl)cc2)cc(-c2ccc(Cl)cc2)c(C#N)c1=O was what?
-- reply false

-- ask Per the records of this test, what outcome belongs to C=CCSc1nc2ccccc2cc1/C=N/O ?
-- reply false

-- ask Give the logged outcome of this assay for the following molecule: CC(C)(C)CC(C)(C)Nc1c(-c2ccncc2)nc2cnccn12
-- reply false

-- ask // outcome(item) with item = CCN(CC)CCCC(C)Nc1c2ccc(Cl)cc2nc2ccc(O)cc12 (configuration not stated)
-- reply false

-- ask Hi team, can someone confirm the assay call for CCN(CC)CCn1nc2c3c(cccc3c1=O)-c1ccccc1-2 ?
-- reply false

-- ask In this assay, the call recorded for O=C1NC(=Nc2ccc(Cl)cc2)S/C1=C\c1cn(-c2ccccc2)nc1-c1ccccc1 was what?
-- reply false

-- ask Dear colleague, could you share the recorded outcome for Cc1ccc(-c2cc(-c3ccccc3C)[nH]c(=O)c2C#N)s1 when you have a moment?
-- reply false

-- ask What did the test return for COc1cccc(-c2nc3sccn3c2-c2ccnc(NCCNS(=O)(=O)c3cccc(F)c3)c2)c1 ?
-- reply false

-- ask Each molecule tested received a call. Report the one for O=[N+]([O-])c1ccc(N2c3ccncc3Sc3ccncc32)cc1 .
-- reply false

-- ask Assay result, entry CC(C)C(=O)Nc1n[nH]c2cc(-c3cccc(NS(=O)(=O)C4CC4)c3)ccc12 — outcome?
-- reply false

-- ask Query: recorded result category for N=C1CCC(=N)c2c1c(O)c1ccccc1c2O in this test
-- reply false

-- ask Dear all, I need the recorded test outcome for COc1ccc(C2=NN(C(=O)c3cc(OC)c(OC)c(OC)c3)C(c3ccc(Cl)cc3)C2)cc1OC (configuration not stated) , thank you.
-- reply false

-- ask # outcome recorded in this test, key = CCN(CC)c1ccc2nc3c4ccccc4c(=NC(=O)c4ccccc4-c4c5ccc(N(CC)CC)cc5[o+]c5cc(N(CC)CC)ccc45)cc-3oc2c1
-- reply false

-- ask GET /call?item= CC1=C([Se]CC(OC(=O)CC[Se]c2ccccc2)C(=O)NCCCCCC(=O)OCc2ccccc2)C(=O)c2ccccc2C1=O (configuration not stated) returns the recorded outcome of this test.
-- reply false

-- ask Hi, do you know how N[C@@H](CCCCNCC(=O)O)C(=O)O came out in this test?
-- reply false

-- ask Which result was noted for this molecule in the test: COc1cccc(/C=C/C(=O)c2c(C)nc3ccccc3c2/C=C/c2ccc(C)cc2)c1OC
-- reply false

-- ask Short answer needed: outcome of this test for O=C(c1ccccc1)c1c(/C=C/c2ccccc2)nc2ccccc2c1/C=C/c1ccc(Br)cc1 ?
-- reply false

-- ask Please state the recorded outcome for this molecule: N=C1C(c2nc(-c3ccc(Br)cc3)cs2)=C(O)CN1Cc1cccnc1
-- reply false

-- ask In this assay, the call recorded for COc1ccc(-c2nc3c(N)c(CO)c(C)nc3o2)cc1 was what?
-- reply false

-- ask Returns: the outcome recorded for NC(=N\N=C/c1ccccc1[N+](=O)[O-])/C(N)=N\N=C/c1ccccc1[N+](=O)[O-] in this assay.
-- reply false

-- ask // param item: COc1ccc(N2CCN(c3nc(-c4cc(OC)c(OC)c(OC)c4)nc4ccccc34)CC2)cc1 ; yields the recorded call
-- reply false

-- ask Dear colleague, could you share the recorded outcome for CC1=C(SCCC(=O)OC(C[Se]C2=C(C)C(=O)c3ccccc3C2=O)C(=O)NCCCCCC(=O)OCc2ccccc2)C(=O)c2ccccc2C1=O (configuration not stated) when you have a moment?
-- reply false

-- ask Assay result, entry COC(=O)[C@]12CC[C@@H](C)[C@H](C)[C@@H]1C1=CC[C@@H]3[C@@]4(C)C(C=O)=C[C@@](C)(CO)[C@@H]4[C@H](O)C[C@@]3(C)[C@]1(C)CC2 — outcome?
-- reply true

-- ask Fill in: this test's call for COc1ccc(C2C(c3nn[nH]n3)=C(N)Oc3c2ccc2ccccc32)cc1 (configuration not stated) is ___
-- reply false

-- ask Please state the recorded outcome for this molecule: Cc1ccccc1NC(=O)N/C(N)=N/c1nc(-c2cccc([N+](=O)[O-])c2)cs1
-- reply false

-- ask For this molecule, state the assay outcome: Cc1ccc(-c2cc(-c3cccnc3)[nH]c(=O)c2C#N)cc1
-- reply false

-- ask // return assay outcome for Cc1cccc(Cc2cnc(NC(=O)/C=C/c3ccco3)s2)c1
-- reply false

-- ask Recorded test outcome, item Cc1cc(C)c(-c2c(C)cc(C)cc2CBr)c(CBr)c1
-- reply false

-- ask Identify the outcome logged in this assay for the molecule shown: N#Cc1c2c(nn(-c3ccccc3)c1=O)C(O)=C([N+](=O)[O-])C(c1ccccc1)C2 (configuration not stated)
-- reply false

-- ask Could you kindly confirm the outcome this assay logged for Cc1cc(NCc2cc(Nc3ccnc4cc(Cl)ccc34)ccc2F)nc(N2CCOCC2)n1 ?
-- reply false

-- ask Entry CNC(=O)c1cc(Oc2cccc3nc(Nc4ccc(F)c(Cl)c4)ccc23)ccn1 : call = ?
-- reply false

-- ask # outcome recorded in this test, key = COc1ccc(NC(=O)c2nc(-c3cc(OC)c(OC)c(OC)c3)n(-c3cccc4ccccc34)n2)cc1OC
-- reply false

-- ask Check the results log: what was the call for Clc1cccc(Cl)c1C(Nc1nc2ccccc2s1)Nc1nc2ccccc2s1 ?
-- reply false

-- ask # fetch the recorded call for Cc1ccc(/C=C/c2c(C(=O)/C=C/c3ccc(C(F)(F)F)cc3)c(C)nc3ccccc23)cc1 here
-- reply true

-- ask Per the records of this test, what outcome belongs to COc1ccc(-c2nc3sccn3c2-c2cc(-c3cc(OC)c(OC)c(OC)c3)on2)cc1 ?
-- reply false

-- ask Name the outcome recorded for O=C(CC(SCc1ccccc1)c1ccccc1)c1ccccc1 (configuration not stated) in the assay.
-- reply false

Provenance of the data: PubChem BioAssay (NCI)
